Data provenance is paper PMC6021502.

Target: human CB1 receptor (Homo sapiens)
Construct: expressed in transfected cells; membranes
Assay: biochemical
Type: binding
Endpoint Label: Ki

Q: Kindly state the measured Ki obtained for CCCCCc1cc(O)c(C/C=C(\C)CCC=C(C)C)c(O)c1 [CBG, cannabigerol] with human CB1 receptor (Homo sapiens).
A: > 30 µM

---

Biological target: human CB2 receptor (Homo sapiens)
Construct: expressed in transfected cells; membranes
Experiment: [3H]-WIN-55,212-2 competition binding, CHO membranes
Details: radioligand [3H]-WIN-55,212-2; read-out: Ki, competition of [3H]-WIN-55,212-2 binding to CB2R
Endpoint Label: Ki (nM)
Dear colleague, please return just the value in nM, with no unit written.

Q: Given the entry `CCCCCc1cc(O)c(C/C=C(\C)CCC=C(C)C)c(O)c1` , report its measured Ki.
A: 2700

---

Molecular target: human CB2 receptor (Homo sapiens, UniProt P34972)
Construct: expressed in transfected cells; membranes
Sequence (P34972 whole entry): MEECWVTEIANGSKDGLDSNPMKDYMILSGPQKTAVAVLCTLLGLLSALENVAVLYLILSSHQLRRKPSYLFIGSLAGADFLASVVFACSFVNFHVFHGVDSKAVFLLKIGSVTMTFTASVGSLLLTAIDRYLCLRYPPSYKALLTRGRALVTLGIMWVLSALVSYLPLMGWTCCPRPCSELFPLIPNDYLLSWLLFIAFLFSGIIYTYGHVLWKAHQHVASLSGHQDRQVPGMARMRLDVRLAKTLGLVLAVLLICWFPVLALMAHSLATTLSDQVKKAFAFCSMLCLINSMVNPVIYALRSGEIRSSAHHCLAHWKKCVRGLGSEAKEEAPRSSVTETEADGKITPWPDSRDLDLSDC
Test: [3H]-WIN-55,212-2 competition binding, CHO membranes
Details: radioligand 3 nM [3H]-WIN-55,212-2, CHO membranes; read-out: CB2 – Ki
Endpoint Label: Ki (µM)
Field format: number, assumed µM, no unit text.

Q: I am curious: what Ki value has been reported for CCCCCc1cc(O)c(C/C=C(\C)CCC=C(C)C)c(O)c1 [CBG, cannabigerol] ?
A: 2.66

---

Kindly supply the reported pKi values for the records listed here.
Molecular target: SNAP-CB2R (Homo sapiens)
Sequence (P34972 whole entry): as above
Test: Homogeneous HTRF competition binding in living HEK-293T cells (fluorophore-conjugated CM-157)
Settings: living HEK-293T cells expressing SNAP-CB2R, 20 nM fluorescent ligand
Formally, pKi is defined as -log10 of the concentration c, with c in mol/L.

Q: Notebook entry, SNAP-CB2R (Homo sapiens) assay: pKi of CC(C)(C)c1nc2cc(S(=O)(=O)c3ccnc(OCCCN)c3)ccc2n1CC1CCOCC1 [CM-157, reference compound] = ?
A: 7.80

Q: Under SNAP-CB2R (Homo sapiens): pKi value of CCCCCc1cc(O)c(C/C=C(\C)CCC=C(C)C)c(O)c1 [CBG, cannabigerol] ?
A: 6.82

---

Hi there, I'd appreciate the recorded Ki for every entry that follows.
Molecular target: CB2R in a CB1–CB2 receptor heteromer context (Homo sapiens, UniProt P34972)
Sequence (P34972 whole entry): as above
Sequence (P21554 whole entry partner): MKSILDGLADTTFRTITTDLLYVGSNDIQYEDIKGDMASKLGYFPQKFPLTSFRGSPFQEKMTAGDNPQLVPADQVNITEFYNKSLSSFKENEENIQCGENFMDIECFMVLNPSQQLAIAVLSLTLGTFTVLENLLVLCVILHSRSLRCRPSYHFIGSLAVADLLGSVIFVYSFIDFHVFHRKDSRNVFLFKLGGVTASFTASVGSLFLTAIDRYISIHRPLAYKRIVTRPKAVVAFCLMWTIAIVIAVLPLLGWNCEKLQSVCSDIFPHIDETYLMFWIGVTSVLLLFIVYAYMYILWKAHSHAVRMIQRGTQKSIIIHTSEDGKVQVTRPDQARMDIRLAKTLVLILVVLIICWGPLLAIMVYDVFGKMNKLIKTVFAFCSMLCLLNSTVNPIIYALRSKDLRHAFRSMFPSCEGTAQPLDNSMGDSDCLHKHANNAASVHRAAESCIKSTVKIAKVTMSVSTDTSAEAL
Experiment: Homogeneous HTRF competition binding in living HEK-293T cells expressing SNAP-CB2R and CB1R
Settings: 20 nM fluorescent ligand, read-out: Ki, HTRF competition of fluorophore-conjugated CM-157 in the presence of CB1R
Give the quantity in nM, number only.

Q: I am curious: what Ki value has been reported for CC(C)(C)c1nc2cc(S(=O)(=O)c3ccnc(OCCCN)c3)ccc2n1CC1CCOCC1 [CM-157, reference compound] ?
A: 19

Q: Which Ki value is on record for `CCCCCc1cc(O)c(C/C=C(\C)CCC=C(C)C)c(O)c1` ?
A: 56

---

Target: human CB1 receptor (Homo sapiens)
Construct: expressed in transfected cells; membranes
Assay: biochemical
Format: binding
Conditions: radioligand 0.3 nM [3H]-CP-55940, CHO membranes
Endpoint Label: pKi
The meaning of pKi here: minus log10 of the concentration in molar units.

Q: Reported pKi, compound CCCCCc1cc(O)c(C/C=C(\C)CCC=C(C)C)c(O)c1 [CBG, cannabigerol] : ____
A: 5.98
